B1: TPR 5TU (parent)
chain: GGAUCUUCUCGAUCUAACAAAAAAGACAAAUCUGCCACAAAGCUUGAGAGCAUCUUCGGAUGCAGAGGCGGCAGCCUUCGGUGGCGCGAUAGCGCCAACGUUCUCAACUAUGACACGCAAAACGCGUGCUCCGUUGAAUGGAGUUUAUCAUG

- Variants of: B1
- ASSAY NOTES: polymerase ribozyme fitness, log enrichment relative to wild type (log ratio); higher = more active; in vitro selection for triplet polymerase activity
Variants at the floor of the assay were thinned out.

| MUTANT | COMPARATOR | polymerase ribozyme fitness (log ratio) |
| --- | --- | --- |
| A22C C75G G88U A91G A110G C116A G136A | ≤ | -4.2 |
| A41U U55A A142G | = | -2.45 |
| C27G C125A | = | -3.93 |
| U7A G94A | = | -3.07 |
| C38U U55A C85U | = | -0.272 |
| A3C C69A C87G U146C C149U U151G | ≤ | -4.2 |
| A16C C51A A89U G94A A98U | = | -3.95 |
| C85U G117A | = | 0.212 |
| C85U C105U | = | -0.279 |
| A26U A39C A49G G128A A138G | ≤ | -4.2 |
| C10A G81C | ≤ | -4.2 |
| A23C C76U C87A | ≤ | -4.2 |
| U56G C63A A120G | = | -0.244 |
| C32U G81U G84A G94C | = | -3.46 |
| C36G C54U G92A A110G G143A | ≤ | -4.2 |
| A26G U53A G88U G92U C118A A147G | ≤ | -4.2 |
| C57U A91G A97G U135A G143A | ≤ | -4.2 |
| U104C U135G | = | -3.31 |
| A52G G68U C99G | ≤ | -4.2 |
| C118U U148A | = | -2.79 |
| A39U C54U C57G U61A C95G C125G | ≤ | -4.2 |
| C14U A17C C35G G141C U151A | ≤ | -4.2 |
